# target: Rac GTPase-activating protein 1 (Homo sapiens) (UniProt Q9H0H5)
# Sequence (Q9H0H5 whole entry, looked up): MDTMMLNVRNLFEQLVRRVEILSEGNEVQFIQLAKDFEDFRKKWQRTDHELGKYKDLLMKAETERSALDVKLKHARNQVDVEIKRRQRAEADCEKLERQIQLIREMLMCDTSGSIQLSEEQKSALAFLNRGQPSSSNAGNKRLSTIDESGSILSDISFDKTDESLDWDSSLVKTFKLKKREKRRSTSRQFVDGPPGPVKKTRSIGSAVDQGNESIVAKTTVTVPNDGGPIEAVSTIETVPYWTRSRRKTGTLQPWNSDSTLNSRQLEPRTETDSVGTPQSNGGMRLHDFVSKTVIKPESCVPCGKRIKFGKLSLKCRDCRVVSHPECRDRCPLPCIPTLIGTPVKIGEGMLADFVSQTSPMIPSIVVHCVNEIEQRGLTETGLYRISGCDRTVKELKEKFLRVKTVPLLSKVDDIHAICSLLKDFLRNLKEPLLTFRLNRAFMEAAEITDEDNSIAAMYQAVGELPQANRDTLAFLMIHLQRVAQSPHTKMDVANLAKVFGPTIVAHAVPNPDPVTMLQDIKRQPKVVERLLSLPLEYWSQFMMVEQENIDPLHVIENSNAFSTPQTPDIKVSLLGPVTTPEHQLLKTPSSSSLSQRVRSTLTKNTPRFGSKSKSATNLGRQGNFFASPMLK
# assay.name: blockers of MgcRacGAP-driven Rac1 GTP hydrolysis – biochemical, ADP Hunter fluorescence, primary and confirmatory, confirmation (AID 624330);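 also: fluorescence reports GDP produced by GAP-driven GTP hydrolysis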
# protocol.conditions: MgcRacGAP-stimulated Rac1 GTP hydrolysis, at 30 µM, stronger effect = higher value, GST-tagged Rac1 F28L mutant substrate
The whole screen tested about 340,000 compounds, of which about 2,100 (0.62%) were called active. Not all results are given here. Potency and affinity values are given separately.
reported.property: inhibition (%)
Number only, in %; omit the unit.

Form entry - test system: Rac GTPase-activating protein 1 (Homo sapiens) (UniProt Q9H0H5); read-out: inhibition; molecule: `O=C(Cc1ccccc1)NCCSCc1ccccc1` 10.9

Form entry - test system: Rac GTPase-activating protein 1 (Homo sapiens) (UniProt Q9H0H5); read-out: inhibition; molecule: `O=C(Cc1ccc([N+](=O)[O-])cc1)Nc1cccc(C(=O)N2CCCCC2)c1` 6.71

Form entry - test system: Rac GTPase-activating protein 1 (Homo sapiens) (UniProt Q9H0H5); read-out: inhibition; molecule: `Cc1ccccc1-n1c(SCC(=O)c2c(N)n(C3CC3)c(=O)[nH]c2=O)nnc1N1CCOCC1` 4.29

Form entry - test system: Rac GTPase-activating protein 1 (Homo sapiens) (UniProt Q9H0H5); read-out: inhibition; molecule: `CC(C)(CC(=O)OCC(=O)Nc1ccccc1F)CC1=NS(=O)(=O)c2ccccc2N1` 8.87

Form entry - test system: Rac GTPase-activating protein 1 (Homo sapiens) (UniProt Q9H0H5); read-out: inhibition; molecule: `Cc1c(Cl)cccc1NC(=S)NCc1cccs1` 5.46

Form entry - test system: Rac GTPase-activating protein 1 (Homo sapiens) (UniProt Q9H0H5); read-out: inhibition; molecule: `O=C(CCC(=O)OCc1ccc([N+](=O)[O-])cc1)Nc1ccc(F)cc1` 4.88

Form entry - test system: Rac GTPase-activating protein 1 (Homo sapiens) (UniProt Q9H0H5); read-out: inhibition; molecule: O=C(NC1CCCC1)C(c1ccncc1)N(C(=O)Cc1cccs1)c1ccc(F)cc1 (stereo not given) -2.61

Form entry - test system: Rac GTPase-activating protein 1 (Homo sapiens) (UniProt Q9H0H5); read-out: inhibition; molecule: COc1ccc(C(CNC(=O)CSc2ccccc2C)N(C)C)cc1 (stereo not given) 6.46

Form entry - test system: Rac GTPase-activating protein 1 (Homo sapiens) (UniProt Q9H0H5); read-out: inhibition; molecule: COc1ccc(N2CC(C(=O)Nc3nnc(SCC(=O)N4CCOCC4)s3)CC2=O)cc1 (stereo not given) 10.3

Form entry - test system: Rac GTPase-activating protein 1 (Homo sapiens) (UniProt Q9H0H5); read-out: inhibition; molecule: CC(=O)Nc1ccc(N(C(=O)CNC(=O)c2ccco2)C(C(=O)NCc2ccco2)c2ccccc2F)cc1 (stereo not given) 4.97

====

# target: Rac GTPase-activating protein 1 (Homo sapiens) (UniProt Q9H0H5)
# assay.name: blockers of MgcRacGAP-driven Rac1 GTP hydrolysis – biochemical, ADP Hunter fluorescence, primary and confirmatory, confirmation (AID 624330);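 also: fluorescence reports GDP produced by GAP-driven GTP hydrolysis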
# protocol.conditions: MgcRacGAP-stimulated Rac1 GTP hydrolysis, at 30 µM, stronger effect = higher value, GST-tagged Rac1 F28L mutant substrate
About 2,100 (0.62%) of roughly 340,000 compounds were called active. The list is a sample of the results. Results with a measured potency or affinity are listed apart.
reported.property: inhibition (%)
Number only, in %; omit the unit.

Form entry - test system: Rac GTPase-activating protein 1 (Homo sapiens) (UniProt Q9H0H5); read-out: inhibition; molecule: COc1ccc(C2C(C(=O)NCc3ccco3)c3ccccc3C(=O)N2C)cc1 (stereo unspecified) 0.04

Form entry - test system: Rac GTPase-activating protein 1 (Homo sapiens) (UniProt Q9H0H5); read-out: inhibition; molecule: `O=C(CCN1C(=O)/C(=C/c2ccccc2Cl)SC1=S)NN1CCOCC1` 4.7

Form entry - test system: Rac GTPase-activating protein 1 (Homo sapiens) (UniProt Q9H0H5); read-out: inhibition; molecule: `Cc1c(Cc2ccccc2)c(=O)oc2c(C)c(OCC(=O)N[C@@H](Cc3ccccc3)C(=O)O)ccc12` 1.68

Form entry - test system: Rac GTPase-activating protein 1 (Homo sapiens) (UniProt Q9H0H5); read-out: inhibition; molecule: `O=C(COc1ccccc1)N[C@@H]1c2ccccc2CC[C@@H]1OCc1ccccc1` 3.68

Form entry - test system: Rac GTPase-activating protein 1 (Homo sapiens) (UniProt Q9H0H5); read-out: inhibition; molecule: `COc1ccc(NC(=O)c2ccc(C(=O)c3ccccc3)o2)cc1` 1.49

Form entry - test system: Rac GTPase-activating protein 1 (Homo sapiens) (UniProt Q9H0H5); read-out: inhibition; molecule: `O=C(Nc1ccccc1O)c1ccc(C(=O)c2ccccc2)o1` 3.33

Form entry - test system: Rac GTPase-activating protein 1 (Homo sapiens) (UniProt Q9H0H5); read-out: inhibition; molecule: `CCOC(=O)C1CCN(CCC(=O)Nc2ccccc2)CC1` 12.6

Form entry - test system: Rac GTPase-activating protein 1 (Homo sapiens) (UniProt Q9H0H5); read-out: inhibition; molecule: `CN1CCN(/N=C/c2ccc(Cl)c(Cl)c2)CC1` -7.71

Form entry - test system: Rac GTPase-activating protein 1 (Homo sapiens) (UniProt Q9H0H5); read-out: inhibition; molecule: `CC(=O)/C(=C/N(C)C)Sc1ccc(C)cc1` -4.58

Form entry - test system: Rac GTPase-activating protein 1 (Homo sapiens) (UniProt Q9H0H5); read-out: inhibition; molecule: `COc1cc2c(cc1CNC[C@H]1O[C@@H](n3ccc(N)nc3=O)[C@H](O)[C@@H]1O)OCO2` 6.09

Form entry - test system: Rac GTPase-activating protein 1 (Homo sapiens) (UniProt Q9H0H5); read-out: inhibition; molecule: `Cc1ccccc1NC(=O)c1ccccc1NC(=O)c1ccco1` 4.69

====

# target: Rac GTPase-activating protein 1 (Homo sapiens)
# assay.name: blockers of MgcRacGAP-driven Rac1 GTP hydrolysis – biochemical, ADP Hunter fluorescence, primary and confirmatory, confirmation (AID 624330);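 also: fluorescence reports GDP produced by GAP-driven GTP hydrolysis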
# protocol.conditions: MgcRacGAP-stimulated Rac1 GTP hydrolysis, at 30 µM, stronger effect = higher value, GST-tagged Rac1 F28L mutant substrate
Hit rate of the full screen: of about 340,000 compounds, about 2,100 (0.62%) were called active. These entries were drawn from the full list. Potency and affinity values are given separately.
For each of the compounds below, state its inhibition.
Number only, in %; omit the unit.

# input compound: `CC(=O)Nc1ccc(N/C(C)=C/C(=O)c2cccnc2)cc1` ; wanted: its inhibition -2.43

# input compound: `Cc1nn(C)c(C)c1NC(=O)CN1CCC(O)(c2ccc3c(c2)OCO3)CC1` ; wanted: its inhibition 2.97

# input compound: `Cc1ccccc1C(=O)NCC(=O)Nc1ccc(C)c(S(=O)(=O)N2CCCCCC2)c1` ; wanted: its inhibition -0.01

# input compound: O=C(Nc1ccccc1)C(Cc1ccccc1)c1ccccc1 (stereo unspecified) ; wanted: its inhibition -2.68

# input compound: O=C(CN1C(=O)C2CCCCC2C1=O)N1CCN(c2ncccn2)CC1 (stereo unspecified) ; wanted: its inhibition 5.06

# input compound: `O=C(NCc1cccs1)c1nc2ncccn2n1` ; wanted: its inhibition 10.9

# input compound: `Cc1ccc(NC(=O)CN2CCOCC2)cc1S(=O)(=O)N1CCCCC1` ; wanted: its inhibition 7.06

# input compound: `CCOc1ccc(/C=N/NC(=O)Cc2csc(Nc3cccc(C(F)(F)F)c3)n2)cc1` ; wanted: its inhibition 13.7

# input compound: `CN(C)S(=O)(=O)c1cc(NC(=O)CN2CCOCC2)ccc1Cl` ; wanted: its inhibition 2.76

# input compound: `COc1ccc(Cl)cc1NC(=O)CN(C)C(=O)CCCNC(=O)c1ccc(Cl)cc1` ; wanted: its inhibition -0.09

# input compound: CCN(CCO)C(=O)CC1C(=O)NCCN1Cc1c(F)cccc1Cl (stereo unspecified) ; wanted: its inhibition 9.19

====

# target: Rac GTPase-activating protein 1 (Homo sapiens)
# assay.name: blockers of MgcRacGAP-driven Rac1 GTP hydrolysis – biochemical, ADP Hunter fluorescence, primary and confirmatory, confirmation (AID 624330);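 also: fluorescence reports GDP produced by GAP-driven GTP hydrolysis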
# protocol.conditions: MgcRacGAP-stimulated Rac1 GTP hydrolysis, at 30 µM, stronger effect = higher value, GST-tagged Rac1 F28L mutant substrate
About 2,100 (0.62%) of roughly 340,000 compounds were called active. Only a sample is shown. Potency and affinity values are given separately.
reported.property: inhibition (%)
Number only, in %; omit the unit.

# input molecule: `Cc1cc(C(=O)Nc2sccc2C(N)=O)c(C)o1` ; wanted: its inhibition 2.82

# input molecule: `CCN(CC(=O)Nc1c(F)cccc1F)C(=O)c1cn2ccccc2n1` ; wanted: its inhibition 2.69

# input molecule: `O=C(O)CCCN1C(=O)/C(=C\c2ccc(-c3nc4ccccc4s3)o2)SC1=S` ; wanted: its inhibition 10.4

# input molecule: `N#CC(=C(O)CN1CCN(c2ccccc2F)CC1)c1nc(-c2ccccc2)cs1` ; wanted: its inhibition 6.97

# input molecule: `CCOCCc1nnc(NC(=O)Cc2c(F)cccc2Cl)s1` ; wanted: its inhibition -4.41

# input molecule: `O=C(CNCc1cccc(Cl)c1)N1CCc2ccccc2C1` ; wanted: its inhibition 30.6

# input molecule: CCn1nc(C)cc1C(=O)N1CCCC(Nc2ccc(C(C)C)cc2)C1 (stereo not drawn) ; wanted: its inhibition 9.28

# input molecule: CCn1nc(CC(C)C)cc1C(=O)N1CCCC(Nc2ccc(F)cc2)C1 (stereo not drawn) ; wanted: its inhibition 1.25

# input molecule: `COc1ccc(/C=C/C(=O)Nc2cc(C(F)(F)F)ccc2Cl)cc1` ; wanted: its inhibition 0.39

# input molecule: `Cc1ccc(NCCC(=O)c2cccs2)cc1Cl` ; wanted: its inhibition -0.47

# input molecule: `O=[N+]([O-])c1ccc(-n2nnnc2CN2CCOCC2)cc1` ; wanted: its inhibition 8.87

# input molecule: `O=C(CNCc1ccc(Cl)cc1)N1CCc2ccccc2C1` ; wanted: its inhibition 25.8

# input molecule: `O=C(Nc1ccc(F)cc1)Nc1nnc(COc2ccccc2F)s1` ; wanted: its inhibition 10.4

# input molecule: `COc1ccc(NC(=O)CCC(=O)c2cccs2)cc1Cl` ; wanted: its inhibition 1.13

# input molecule: `Cc1cc(C)nc(NS(=O)(=O)c2ccc(NC(=S)NC(=O)C(C)(C)C)cc2)n1` ; wanted: its inhibition 8.49

# input molecule: `Cc1cc(C)c(/C([O-])=C(/C(=S)Nc2ccc(SC(F)F)cc2)[n+]2ccccc2)cc1C` ; wanted: its inhibition -14.3

# input molecule: OC(CNCC1COc2ccccc2O1)COc1ccccc1F (stereo not drawn) ; wanted: its inhibition 8.38

# input molecule: O=C(Nc1ccc2c(c1)OCCO2)C1CC(O)CN1C(=O)Nc1ccccc1 (stereo not drawn) ; wanted: its inhibition 5.39

# input molecule: `Cc1cccc(CCN2CCN=C2Nc2ccccc2)c1` ; wanted: its inhibition 10.2

# input molecule: `O=C(O)CCCN1C(=O)/C(=C/c2ccc(-c3nc4ccccc4s3)o2)SC1=S` ; wanted: its inhibition 11.9

# input molecule: `Cc1ccc(C(=O)N2CCN(Cc3ccc4c(c3)OCO4)CC2)o1` ; wanted: its inhibition 3.03

# input molecule: `CCOc1ncccc1C(=O)OCCCC(=O)c1ccc(Br)cc1` ; wanted: its inhibition 2.15

# input molecule: CC1CCCC(C)N1CCNC(=O)Nc1ccc(Cl)cc1 (stereo not drawn) ; wanted: its inhibition 6.73
